Attribution: paper PMC6661809

Listing: melting point of selected molecules
property_measured: melting point

>  <molecule>
C=CCc1ccc(OC(=O)c2ccccc2O)c(OC)c1 [Compound 13c]

>  <property_measured>
melting point

>  <experimental_result>
157 to 159 °C

$$$$
>  <molecule>
C=CCc1ccc(OCC(=O)NNC(=O)c2ccccn2)c(OC)c1

>  <property_measured>
melting point

>  <experimental_result>
204 to 205 °C

$$$$
>  <molecule>
C=CCc1ccc(OCC(=O)NNC(=O)c2ccccc2O)c(OC)c1

>  <property_measured>
melting point

>  <experimental_result>
230 to 231 °C

$$$$
>  <molecule>
C=CCc1ccc(OC(=O)/C=C\c2ccc(O)c(OC)c2)c(OC)c1

>  <property_measured>
melting point

>  <experimental_result>
120 to 122 °C

$$$$
>  <molecule>
C=CCc1ccc(OC(=O)c2ccc(O)cc2)c(OC)c1 [Compound 13b]

>  <property_measured>
melting point

>  <experimental_result>
178 to 179 °C

$$$$

###

biological target: hMAO-A (Homo sapiens); assay: Recombinant human MAO-A inhibition screening (Amplex Red, p-tyramine); conditions: recombinant hMAO-A, p-tyramine substrate, mean SEM

>  <molecule>
C=CCc1ccc(OCC(=O)NNC(=O)c2ccccn2)c(OC)c1

>  <subject_of_test>
hMAO-A (Homo sapiens)

>  <IC50 / µM>
18.1

$$$$
>  <molecule>
C=CCc1ccc(OC(=O)c2ccccc2S)c(OC)c1 [Compound 13d]

>  <subject_of_test>
hMAO-A (Homo sapiens)

>  <IC50 / µM>
20.9

$$$$
>  <molecule>
C=CCc1ccc(OC(=O)c2ccc(O)cc2)c(OC)c1 [Compound 13b]

>  <subject_of_test>
hMAO-A (Homo sapiens)

>  <IC50 / µM>
52.6

$$$$
>  <molecule>
C=CCc1ccc(OC(=O)/C=C\c2ccccc2)c(OC)c1

>  <subject_of_test>
hMAO-A (Homo sapiens)

>  <IC50 / µM>
13.9

$$$$
>  <molecule>
C=CCc1ccc(OCC(=O)NNC(=O)c2ccccc2O)c(OC)c1

>  <subject_of_test>
hMAO-A (Homo sapiens)

>  <IC50 / µM>
10.8

$$$$
>  <molecule>
C=CCc1ccc(OCC(=O)NNC(=S)NC(=O)c2cc(O)c(O)c(O)c2)c(OC)c1

>  <subject_of_test>
hMAO-A (Homo sapiens)

>  <IC50 / µM>
5.99

$$$$
>  <molecule>
C=CCc1ccc(OC(=O)c2ccccc2O)c(OC)c1 [Compound 13c]

>  <subject_of_test>
hMAO-A (Homo sapiens)

>  <IC50 / µM>
22.4

$$$$
>  <molecule>
C=CCc1ccc(OC(=O)c2ccc(O)c(OC)c2)c(OC)c1 [Compound 13a]

>  <subject_of_test>
hMAO-A (Homo sapiens)

>  <IC50 / µM>
38.5

$$$$
>  <molecule>
C=CCc1ccc(OC(=O)/C=C\c2ccc(O)c(OC)c2)c(OC)c1

>  <subject_of_test>
hMAO-A (Homo sapiens)

>  <IC50 / µM>
7.35

$$$$
>  <molecule>
C=CCc1ccc(O)c(OC)c1

>  <subject_of_test>
hMAO-A (Homo sapiens)

>  <IC50 / µM>
16.5

$$$$
>  <molecule>
C=CCc1ccc(OCC(=O)NNC(=O)c2ccccc2S)c(OC)c1

>  <subject_of_test>
hMAO-A (Homo sapiens)

>  <IC50 / µM>
16.6

$$$$

###

biological target: hMAO-A (Homo sapiens, UniProt P21397); construct: purchased Sigma-Aldrich; host or cells: insect cells (BTI-TN-5B14) infected with recombinant baculovirus; assay: Recombinant human MAO-A inhibition screening (Amplex Red, p-tyramine); type: biochemical; details: IC50 (MAO-A)/IC50 (MAO-B)
Sequence (P21397 whole entry): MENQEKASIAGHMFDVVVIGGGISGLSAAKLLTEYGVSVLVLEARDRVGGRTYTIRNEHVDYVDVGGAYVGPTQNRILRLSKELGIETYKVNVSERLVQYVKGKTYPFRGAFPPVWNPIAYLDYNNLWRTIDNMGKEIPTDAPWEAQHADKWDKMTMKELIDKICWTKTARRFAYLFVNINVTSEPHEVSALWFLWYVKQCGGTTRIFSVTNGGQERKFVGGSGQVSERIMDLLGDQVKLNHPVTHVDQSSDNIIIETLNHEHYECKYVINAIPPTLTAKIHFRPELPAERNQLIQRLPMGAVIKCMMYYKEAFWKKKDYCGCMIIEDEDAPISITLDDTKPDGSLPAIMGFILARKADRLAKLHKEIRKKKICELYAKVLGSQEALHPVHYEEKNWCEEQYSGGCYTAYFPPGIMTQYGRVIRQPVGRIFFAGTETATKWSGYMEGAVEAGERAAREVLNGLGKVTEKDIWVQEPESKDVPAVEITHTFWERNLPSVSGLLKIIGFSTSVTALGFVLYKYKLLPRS
Lab note: compare Selectivity index against 2. Equal or greater, write condition met. Smaller, write condition not met.

>  <compound>
C=CCc1ccc(OCC(=O)NNC(=S)NC(=O)c2cc(O)c(O)c(O)c2)c(OC)c1

>  <label_value>
condition not met

$$$$
>  <compound>
C=CCc1ccc(OC(=O)c2ccc(O)c(OC)c2)c(OC)c1 [Compound 13a]

>  <label_value>
condition met

$$$$
>  <compound>
C=CCc1ccc(O)c(OC)c1

>  <label_value>
condition not met

$$$$
>  <compound>
C=CCc1ccc(OCC(=O)NNC(=O)c2ccccn2)c(OC)c1

>  <label_value>
condition not met

$$$$
>  <compound>
C=CCc1ccc(OC(=O)c2ccccc2O)c(OC)c1 [Compound 13c]

>  <label_value>
condition not met

$$$$

###

target: hMAO-B (Homo sapiens, UniProt P27338); experiment: Recombinant human MAO-B inhibition screening (Amplex Red, p-tyramine); conditions: p-tyramine substrate, mean SEM
// returns f unless IC50 is strictly below 10 µM, in which case t

>  <compound>
C=CCc1ccc(OC(=O)c2ccccc2O)c(OC)c1 [Compound 13c]

>  <label_value>
f

$$$$
>  <compound>
C=CCc1ccc(OC(=O)c2ccc(O)cc2)c(OC)c1 [Compound 13b]

>  <label_value>
t

$$$$
>  <compound>
C=CCc1ccc(OCC(=O)NNC(=O)c2ccccc2S)c(OC)c1 [Compound 9b]

>  <label_value>
f

$$$$
>  <compound>
C=CCc1ccc(OC(=O)/C=C\c2ccccc2)c(OC)c1 [Compound 17]

>  <label_value>
f

$$$$
>  <compound>
C=CCc1ccc(OC(=O)c2ccccc2S)c(OC)c1 [Compound 13d]

>  <label_value>
f

$$$$

###

assay: Nitric oxide scavenging activity; conditions: Table 8, mean ± SEM, n = 3

>  <compound>
C=CCc1ccc(OC(=O)c2ccc(O)cc2)c(OC)c1 [Compound 13b]

>  <Nitric oxide scavenging IC50>
11.74 ± 0.523 µg/mL

$$$$
>  <compound>
O=C1O[C@H]([C@@H](O)CO)C(O)=C1O [L-Ascorbic acid, reference compound]

>  <Nitric oxide scavenging IC50>
7.523 ± 0.005 µg/mL

$$$$
>  <compound>
C=CCc1ccc(O)c(OC)c1 [Eugenol]

>  <Nitric oxide scavenging IC50>
11.724 ± 0.003 µg/mL

$$$$

###

Listed here: items and their measured IC50.
Target: hMAO-B (Homo sapiens, UniProt P27338)
Construct: purchased Sigma-Aldrich; host or cells: insect cells (BTI-TN-5B14) infected with recombinant baculovirus
Sequence (P27338 1-520): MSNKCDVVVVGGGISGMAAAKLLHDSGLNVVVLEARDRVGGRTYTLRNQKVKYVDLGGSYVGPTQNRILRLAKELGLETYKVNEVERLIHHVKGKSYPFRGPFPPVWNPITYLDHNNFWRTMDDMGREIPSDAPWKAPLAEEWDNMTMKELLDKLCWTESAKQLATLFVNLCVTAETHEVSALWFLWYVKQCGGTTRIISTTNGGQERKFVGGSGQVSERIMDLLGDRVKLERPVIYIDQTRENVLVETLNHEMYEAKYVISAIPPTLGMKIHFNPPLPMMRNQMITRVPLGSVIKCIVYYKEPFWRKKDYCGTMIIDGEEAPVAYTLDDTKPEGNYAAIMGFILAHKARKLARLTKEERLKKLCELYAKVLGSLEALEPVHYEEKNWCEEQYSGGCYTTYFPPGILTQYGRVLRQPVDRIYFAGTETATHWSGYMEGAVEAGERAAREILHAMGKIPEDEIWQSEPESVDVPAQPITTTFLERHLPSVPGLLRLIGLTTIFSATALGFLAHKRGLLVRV
Experiment: Recombinant human MAO-B inhibition screening (Amplex Red, p-tyramine)
Type: biochemical
Conditions: p-tyramine substrate, mean SEM

>  <compound>
C=CCc1ccc(OCC(=O)NNC(=O)c2ccccc2O)c(OC)c1 [Compound 9a]

>  <IC50, µM>
47.7

$$$$
>  <compound>
C=CCc1ccc(O)c(OC)c1 [Eugenol]

>  <IC50, µM>
13.3

$$$$
>  <compound>
C=CCc1ccc(OCC(=O)NNC(=O)c2ccccn2)c(OC)c1 [Compound 11]

>  <IC50, µM>
26.8

$$$$
>  <compound>
C=CCc1ccc(OC(=O)/C=C\c2ccc(O)c(OC)c2)c(OC)c1 [Compound 16]

>  <IC50, µM>
49.1

$$$$
>  <compound>
C=CCc1ccc(OC(=O)c2ccc(O)c(OC)c2)c(OC)c1 [Compound 13a]

>  <IC50, µM>
7.49

$$$$
>  <compound>
C=CCc1ccc(OCC(=O)NNC(=S)NC(=O)c2cc(O)c(O)c(O)c2)c(OC)c1 [Compound 5b]

>  <IC50, µM>
31.2

$$$$

###

Experiment: Nitric oxide scavenging activity
Conditions: Table 8, mean ± SEM, n = 3
Source text: The generation of nitric oxide (NO·) on biological tissues is mediated by particular nitric oxide synthases enzyme that control the catabolism of the arginine to citrulline via creation of NO through a five electron oxidative reaction. At the physiological pH (7.2) in aqueous solution sodium nitroprusside decompose to produce NO·. Finally, NO· reacts with oxygen at underaerobic conditions and produces stable products (nitrate and nitrite), this amount can be determined by means of Griess reagent. […]

>  <compound>
C=CCc1ccc(OC(=O)/C=C\c2ccccc2)c(OC)c1 [Compound 17]

>  <Nitric oxide scavenging IC50>
25.61 ± 0.076 µg/mL

$$$$
>  <compound>
C=CCc1ccc(OCC(=O)NNC(=S)NC(=O)c2cc(O)c(O)c(O)c2)c(OC)c1 [Compound 5b]

>  <Nitric oxide scavenging IC50>
6.456 ± 0.023 µg/mL

$$$$
>  <compound>
C=CCc1ccc(OCC(=O)NNC(=O)c2ccccc2S)c(OC)c1 [Compound 9b]

>  <Nitric oxide scavenging IC50>
8.095 ± 0.018 µg/mL

$$$$
>  <compound>
C=CCc1ccc(OC(=O)c2ccccc2S)c(OC)c1 [Compound 13d]

>  <Nitric oxide scavenging IC50>
11.23 ± 0.032 µg/mL

$$$$
>  <compound>
C=CCc1ccc(OC(=O)c2ccccc2O)c(OC)c1 [Compound 13c]

>  <Nitric oxide scavenging IC50>
14.63 ± 0.412 µg/mL

$$$$
>  <compound>
C=CCc1ccc(OC(=O)c2ccc(O)c(OC)c2)c(OC)c1 [Compound 13a]

>  <Nitric oxide scavenging IC50>
20.23 ± 0.073 µg/mL

$$$$
>  <compound>
C=CCc1ccc(OCC(=O)NNC(=O)c2ccccn2)c(OC)c1 [Compound 11]

>  <Nitric oxide scavenging IC50>
10.71 ± 0.743 µg/mL

$$$$
>  <compound>
C=CCc1ccc(OCC(=O)NNC(=O)c2ccccc2O)c(OC)c1 [Compound 9a]

>  <Nitric oxide scavenging IC50>
9.007 ± 0.014 µg/mL

$$$$
>  <compound>
C=CCc1ccc(OC(=O)/C=C\c2ccc(O)c(OC)c2)c(OC)c1 [Compound 16]

>  <Nitric oxide scavenging IC50>
18.63 ± 0.654 µg/mL

$$$$
